Tested on: IL-2 production in CD3+/CD4+ cells
Experiment: IL-2 production assay, Protocol A (ionomycin and PMA as stimuli)
Type: cell-based
Settings: human CD3+/CD4+ cells, ionomycin 1 μg/ml and PMA 10 ng/ml, 16 hr

- cpdSmiles: "c1ccc(-c2cncc3[nH]c4ccccc4c23)cc1"
  IC50, µM: 14
- cpdSmiles: "CCOc1ccc(-c2cncc3[nH]c4ccccc4c23)cc1"
  IC50, µM: 0.3
- cpdSmiles: "COc1ccc(-c2cncc3[nH]c4ccc(Cl)cc4c23)cc1"
  IC50, µM: 9.2
- cpdSmiles: "COc1cccc(-c2cncc3[nH]c4ccccc4c23)c1"
  IC50, µM: 5
- cpdSmiles: "Cc1ccc(-c2cncc3[nH]c4ccccc4c23)cc1"
  IC50, µM: 2
- cpdSmiles: "FC(F)(F)c1ccc(-c2cncc3[nH]c4ccccc4c23)cc1"
  IC50, µM: 0.3
- cpdSmiles: "CCCc1cncc2[nH]c3ccccc3c12"
  IC50, µM: 38
- cpdSmiles: "Clc1ccc(-c2cncc3[nH]c4ccccc4c23)cc1"
  IC50, µM: 0.8
- cpdSmiles: "Cc1cccc(-c2cncc3[nH]c4ccccc4c23)c1"
  IC50, µM: 5

###

Measured ALLOGENEIC CELL TRANSPLANT %, listed per entry for reference.
Test system: allogeneic cell transplant response (T-cell-mediated immune response, popliteal lymph node)
Assay: Allogeneic cell transplant response in mice (popliteal lymph node weight)
Format: in vivo, mice (DBA donors, C57B1/6 recipients)
Conditions: 1 mg/kg, dosed one hour prior to cell injection and daily thereafter, ~four days

- cpdSmiles: "COc1cccc(-c2cncc3[nH]c4ccccc4c23)c1"
  ALLOGENEIC CELL TRANSPLANT %: "49%"
- cpdSmiles: "Cc1ccc(-c2cncc3[nH]c4ccccc4c23)cc1"
  ALLOGENEIC CELL TRANSPLANT %: "38%"
- cpdSmiles: "COc1ccc(-c2cncc3[nH]c4ccccc4c23)cc1"
  ALLOGENEIC CELL TRANSPLANT %: "60%"
- cpdSmiles: "CCOc1ccc(-c2cncc3[nH]c4ccccc4c23)cc1"
  ALLOGENEIC CELL TRANSPLANT %: "49%"

###

Test system: Ca^+2 influx in Jurkat cells (clone E6-1)
Test: Calcium influx assay (thapsigargin-stimulated, Fluo-3)
Type: cell-based
Conditions: Homo sapiens; Jurkat cells clone E6-1, thapsigargin 100 nM, 10 min preincubation
pIC50: −log10 of the molar value.
Consider the following compounds and their measured pIC50 readings.

- compound: "Cn1c2ccccc2c2c(-c3ccc(C(F)(F)F)cc3)cncc21 [Compound 26]"
  pIC50: 5.60
- compound: "CN(C)c1ccc(-c2cncc3[nH]c4ccccc4c23)cc1 [Compound 24]"
  pIC50: 5.80
- compound: "COc1ccc(-c2cncc3[nH]c4ccccc4c23)cc1C [Compound 33]"
  pIC50: 6.00
- compound: "Cc1ccc(-c2cncc3[nH]c4ccccc4c23)s1 [Compound 39]"
  pIC50: 6.15
- compound: "COc1cccc(-c2cncc3[nH]c4ccccc4c23)c1 [Compound 7]"
  pIC50: 6.15

###

Test system: IL-2 production in CD3+/CD4+ cells
Assay: IL-2 production assay, Protocol A (ionomycin and PMA as stimuli)
Assay type: cell-based
Conditions: human CD3+/CD4+ cells, ionomycin 1 μg/ml and PMA 10 ng/ml, 16 hr
Procedure: Protocol A (ionomycin and […] as stimuli) Human peripheral blood is obtained from healthy donors by venipuncture and the mononuclear cell fraction is prepared by centrifugation on Ficoll Hypaque (Phamacia) density gradients. Contaminating red blood cells are lysed and the CD3+/CD4+ cells are purified using immunoaffinity columns (R&D Systems or CellPro). The cells are resuspended and dispensed in 96 well microtiter plates. […]
Below is a list of entries, each paired with its recorded IC50 value.

- cpdSmiles: "COc1ccc(-c2cncc3c2c2ccccc2n3Cc2ccccc2)cc1"
  measurementUnits: "µM"
  comparisonSign: "="
  IC50: 27
- cpdSmiles: "COc1ccccc1-c1cncc2[nH]c3ccccc3c12"
  measurementUnits: "µM"
  comparisonSign: "="
  IC50: 3
- cpdSmiles: "c1cncc(-c2cncc3[nH]c4ccccc4c23)c1"
  measurementUnits: "µM"
  comparisonSign: "="
  IC50: 36
- cpdSmiles: "COc1ccc(-c2cncc3c2c2ccccc2n3C)cc1"
  measurementUnits: "µM"
  comparisonSign: ">"
  IC50: 20
- cpdSmiles: "COc1ccc(-c2cncc3[nH]c4ccccc4c23)cc1"
  measurementUnits: "µM"
  comparisonSign: "="
  IC50: 1

These measurements were taken from patent US6093723A.
